This collection of values is drawn from ChEMBL document CHEMBL1142976.

Assay: Oral bioavailability in Sprague-Dawley rat at 1 mg/kg, iv and 2.5 mg/kg, po
Format: ADME, organism-based
Settings: in vivo
MEASURE NAME: bioavailability

MOLECULE	VAL
C[C@@H](C(=O)N1CCOCC1)N1CC[C@H](NS(=O)(=O)/C=C/c2ccc(Cl)s2)C1=O [GW813893]	75%

----------
Test: Half life in Beagle dog at 1 mg/kg, iv and 2.5 mg/kg, po
Type: ADME, organism-based, Canis lupus familiaris
Conditions: in vivo

STRUCTURE	half-life [h]
C[C@@H](C(=O)N1CCOCC1)N1CC[C@H](NS(=O)(=O)/C=C/c2ccc(Cl)s2)C1=O	1.2

----------
Test: Volume of distribution at steady state in Beagle dog at 1 mg/kg, iv and 2.5 mg/kg, po
Format: ADME, organism-based, Canis lupus familiaris
Details: in vivo, read-out: Vss

STRUCTURE	READOUT UNITS	Vd
C[C@@H](C(=O)N1CCOCC1)N1CC[C@H](NS(=O)(=O)/C=C/c2ccc(Cl)s2)C1=O	L/kg	0.42

----------
# log10 of Ki per entry for Coagulation factor X (Homo sapiens, UniProt P00742)
MEASURE NAME: log10 of Ki (log10 of the value in µM)

STRUCTURE	TEST SYSTEM	log10 of Ki
C[C@@H](C(=O)N1CCOCC1)N1CC[C@H](NS(=O)(=O)c2cc3sc(Cl)cc3s2)C1=O	Coagulation factor X (Homo sapiens, UniProt P00742)	-0.78
Cc1ccc2cc(S(=O)(=O)N[C@H]3CCN([C@@H](C)C(=O)N4CCOCC4)C3=O)ccc2c1	Coagulation factor X (Homo sapiens, UniProt P00742)	-0.96
C[C@@H](C(=O)N1CCOCC1)N1CC[C@H](NS(=O)(=O)c2cnc(-c3ccc(Cl)s3)s2)C1=O	Coagulation factor X (Homo sapiens, UniProt P00742)	-2.30
C[C@@H](C(=O)N1CCOCC1)N1CC[C@H](NS(=O)(=O)/C=C/c2ccc(Cl)cc2)C1=O	Coagulation factor X (Homo sapiens, UniProt P00742)	-1.96
C[C@@H](C(=O)N1CCOCC1)N1CC[C@H](NS(=O)(=O)c2cc3cc(Cl)cnc3s2)C1=O	Coagulation factor X (Homo sapiens, UniProt P00742)	0.46

----------
Test: Lipophilicity, log D at pH 7.4
Assay type: physicochemical
Conditions: buffer
logD listing for selected compounds.
MEASURE NAME: logD

STRUCTURE	VAL
C[C@@H](C(=O)N1CCOCC1)N1CC[C@H](NS(=O)(=O)c2ncc(-c3ccc(Cl)s3)s2)C1=O	2.1
C[C@@H](C(=O)N1CCOCC1)N1CC[C@H](NS(=O)(=O)/C=C/c2ccc(Cl)cc2)C1=O	1.49
C[C@@H](C(=O)N1CCOCC1)N1CC[C@H](NS(=O)(=O)/C=C/c2ccc(Cl)s2)C1=O	1.47
C[C@@H](C(=O)N1CCOCC1)N1CC[C@H](NS(=O)(=O)c2cnc(-c3ccc(Cl)s3)s2)C1=O	2.18
C[C@@H](C(=O)N1CCOCC1)N1CC[C@H](NS(=O)(=O)c2ccc(-c3ccc(Cl)s3)s2)C1=O	2.03
C[C@@H](C(=O)N1CCOCC1)N1CC[C@H](NS(=O)(=O)c2ccc3cc(Cl)ccc3c2)C1=O	1.79
C[C@@H](C(=O)N1CCOCC1)N1CC[C@H](NS(=O)(=O)c2cc3ccc(Cl)cc3s2)C1=O	1.85
C[C@@H](C(=O)N1CCOCC1)N1CC[C@H](NS(=O)(=O)c2cc3cc(Cl)ccc3s2)C1=O	2.07
